Tested on: MIA PaCa-2 cells
method: Growth inhibition activity on KRAS-G12C mutant cell line (MIA PaCa-2)
Format: cell-based
protocolConditions: Homo sapiens, 72 h; MIA PaCa-2, 3-day culture, CellTiter-Glo 3D
Please provide measured IC50 for the entries that follow.
Provide the reading as a plain figure in nM.

Field IC50 (MIA PaCa-2 cells), entry CO[C@H]1CC[C@H](NC/C=C/C(=O)Nc2ccc(C(=O)c3ccc4c(-c5c(C)cc6c(ncn6C)c5C(C)C)cccn34)cc2C#N)CC1 : 69

Field IC50 (MIA PaCa-2 cells), entry CCN(CC)[C@H]1CC[C@H](NC/C=C/C(=O)Nc2ccc(C(=O)Nc3cccc(-c4cc5nc6n(c5cc4C(F)(F)F)CCC6)n3)cc2C#N)CC1 : 550

Field IC50 (MIA PaCa-2 cells), entry CO[C@H]1CC[C@H](NC/C=C/C(=O)Nc2ccc(C(=O)c3ccc4c(-c5cc6ncn(C)c6cc5C)cccn34)cc2C#N)CC1 : 140
